Molecular target: T1, IscR (His-tagged) (Comamonas testosteroni S44, UniProt A0A0L7MDB4 1-178)
T1 sequence: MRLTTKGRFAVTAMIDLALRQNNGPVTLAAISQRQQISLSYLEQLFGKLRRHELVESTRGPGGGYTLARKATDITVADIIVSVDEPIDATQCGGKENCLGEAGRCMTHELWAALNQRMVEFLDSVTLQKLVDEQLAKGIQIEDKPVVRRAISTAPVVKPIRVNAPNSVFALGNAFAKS
Assay: EMSA; 100 mM HEPES pH 7.6, 5 mM EDTA, 50 mM (NH4)2SO4, 5 mM DTT, 1% (w/v) Tween 20, 150 mM KCl; 30 min at 30 C; 20 uL; 6% native PAGE, ethidium bromide
Settings: protein: recombinant; tags: His-tag (pET-28a(+)); chain copies: 2
TEST_READOUT: binding result

1. Site A* 30-bp (dsDNA) DNA 1: CTGTTACCCGACAAAGCTGGCGGGGAATGT DNA 2: ACATTCCCCGCCAGCTTTGTCGGGTAACAG = no binding
2. Site A 30-bp (dsDNA) DNA 1: CTGTTACCCGACAAAATTGATGGGGAATGT DNA 2: ACATTCCCCATCAATTTTGTCGGGTAACAG = binds
3. Site B 30-bp (dsDNA) DNA 1: GATATACTCGCCTCAAACACTCAACAACAA DNA 2: TTGTTGTTGAGTGTTTGAGGCGAGTATATC = binds
4. Site B* 30-bp (dsDNA) DNA 1: GATGCGCTCGCCTCAAACACTCAACAACAA DNA 2: TTGTTGTTGAGTGTTTGAGGCGAGCGCATC = no binding

# credit: paper PMC4683182
